target: T1, human activated protein C (human, UniProt P04070 43-197; P04070 212-461); experiment: KD ELISA ranking, direct antigen coating ELISA of Fab
T1 construct: In the plasma assays aPC is generated in human plasma with Protac; also called aPC; haPC

[
  {
    "binder": "R2-32E6 (Fab, V domains shown, Combinatorial mutant Fab of HAPC-14; Printed CDRs are the same as those of R2-24F3; also called combinatorial mutant No. 14) VH: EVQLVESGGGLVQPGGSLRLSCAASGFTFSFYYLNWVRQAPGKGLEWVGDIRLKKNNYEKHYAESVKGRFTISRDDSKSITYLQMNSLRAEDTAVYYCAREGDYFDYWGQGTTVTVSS VL: DIQLTQSPSSLSASVGDRVTITCRASESVDSFGATFMHWYQQKPGKAPKLLIYLASWLGSGVPSRFSGSGSGTDFTLTISSLQPEDFATYYCVQNNEDPYTFGQGTKLEIK",
    "Bmax": 1.41
  },
  {
    "binder": "R2-23H2 (Fab, V domains shown, Combinatorial mutant Fab of HAPC-14; also called combinatorial mutant No. 2) VH: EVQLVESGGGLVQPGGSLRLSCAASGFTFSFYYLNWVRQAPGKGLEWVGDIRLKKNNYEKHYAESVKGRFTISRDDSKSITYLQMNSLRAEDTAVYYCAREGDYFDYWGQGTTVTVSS VL: DIQLTQSPSSLSASVGDRVTITCRASESVDSFGATFMHWYQQKPGKAPKLLIYLASWLGSGVPSRFSGSGSGTDFTLTISSLQPEDFATYYCQQNNEDPYTFGQGTKLEIK",
    "Bmax": 1.26
  },
  {
    "binder": "R2-22B6 (Fab, V domains shown, Combinatorial mutant Fab of HAPC-14; also called combinatorial mutant No. 15) VH: EVQLVESGGGLVQPGGSLRLSCAASGFTFSFYYLNWVRQAPGKGLEWVGDIRLKSNNYEKHYAESVKGRFTISRDDSKSITYLQMNSLRAEDTAVYYCAREGDYFDYWGQGTTVTVSS VL: DIQLTQSPSSLSASVGDRVTITCRASESVDSFGATFMHWYQQKPGKAPKLLIYLASRLGSGVPSRFSGSGSGTDFTLTISSLQPEDFATYYCQQNNEDPYTFGQGTKLEIK",
    "Bmax": 1.21
  },
  {
    "binder": "R2-9C1 (Fab, V domains shown, Combinatorial mutant Fab of HAPC-14; also called combinatorial mutant No. 16) VH: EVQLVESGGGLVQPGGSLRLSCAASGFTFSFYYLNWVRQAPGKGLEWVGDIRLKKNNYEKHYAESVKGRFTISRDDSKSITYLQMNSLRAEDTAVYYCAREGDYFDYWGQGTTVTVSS VL: DIQLTQSPSSLSASVGDRVTITCRASESVDSFGATFMHWYQQKPGKAPKLLIYLASWLESGVPSRFSGSGSGTDFTLTISSLQPEDFATYYCVQNNEDPYTFGQGTKLEIK",
    "Bmax": 1.09
  },
  {
    "binder": "R2-23E10 (Fab, V domains shown, Combinatorial mutant Fab of HAPC-14; also called combinatorial mutant No. 12) VH: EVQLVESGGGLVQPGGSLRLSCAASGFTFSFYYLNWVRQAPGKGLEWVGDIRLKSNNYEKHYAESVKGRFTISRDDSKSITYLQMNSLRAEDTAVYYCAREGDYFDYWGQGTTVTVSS VL: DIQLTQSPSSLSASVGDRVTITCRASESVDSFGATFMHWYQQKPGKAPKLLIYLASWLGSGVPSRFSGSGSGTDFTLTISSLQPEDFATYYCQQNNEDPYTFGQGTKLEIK",
    "Bmax": 1.24
  },
  {
    "binder": "R2-27G7 (Fab, V domains shown, Combinatorial mutant Fab of HAPC-14; also called combinatorial mutant No. 6) VH: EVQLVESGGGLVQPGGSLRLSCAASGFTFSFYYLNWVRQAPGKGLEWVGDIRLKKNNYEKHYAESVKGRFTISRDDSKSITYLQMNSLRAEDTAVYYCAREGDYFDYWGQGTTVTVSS VL: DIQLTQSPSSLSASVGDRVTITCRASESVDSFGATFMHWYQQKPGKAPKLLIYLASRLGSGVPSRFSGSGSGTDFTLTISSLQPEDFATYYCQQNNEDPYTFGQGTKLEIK",
    "Bmax": 0.715
  },
  {
    "binder": "R2-26E4 (Fab, V domains shown, Combinatorial mutant Fab of HAPC-14; also called combinatorial mutant No. 4) VH: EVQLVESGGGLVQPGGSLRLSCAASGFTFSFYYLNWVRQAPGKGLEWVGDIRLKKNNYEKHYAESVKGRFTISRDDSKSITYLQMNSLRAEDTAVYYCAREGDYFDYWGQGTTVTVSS VL: DIQLTQSPSSLSASVGDRVTITCRASESVDSFGATFMHWYQQKPGKAPKLLIYLASRLGSGVPSRFSGSGSGTDFTLTISSLQPEDFATYYCVQNNEDPYTFGQGTKLEIK",
    "Bmax": 1.21
  },
  {
    "binder": "R2-30F7 (Fab, V domains shown, Combinatorial mutant Fab of HAPC-14; also called combinatorial mutant No. 11) VH: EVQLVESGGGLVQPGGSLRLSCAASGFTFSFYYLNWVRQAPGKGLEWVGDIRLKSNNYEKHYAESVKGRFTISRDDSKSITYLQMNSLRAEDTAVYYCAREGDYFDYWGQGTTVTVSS VL: DIQLTQSPSSLSASVGDRVTITCRASESVDSFGATFMHWYQQKPGKAPKLLIYLASRLPSGVPSRFSGSGSGTDFTLTISSLQPEDFATYYCVQNNEDPYTFGQGTKLEIK",
    "Bmax": 0.617
  },
  {
    "binder": "R2-24D4 (Fab, V domains shown, Combinatorial mutant Fab of HAPC-14; also called combinatorial mutant No. 10) VH: EVQLVESGGGLVQPGGSLRLSCAASGFTFSFYYLNWVRQAPGKGLEWVGDIRLKKNNYEKHYAESVKGRFTISRDDSKSITYLQMNSLRAEDTAVYYCAREGDTFDYWGQGTTVTVSS VL: DIQLTQSPSSLSASVGDRVTITCRASESVDSFGATFMHWYQQKPGKAPKLLIYLASWLPSGVPSRFSGSGSGTDFTLTISSLQPEDFATYYCQQNNEDPYTFGQGTKLEIK",
    "Bmax": 0.717
  },
  {
    "binder": "R2-25B7 (Fab, V domains shown, Combinatorial mutant Fab of HAPC-14; also called combinatorial mutant No. 5) VH: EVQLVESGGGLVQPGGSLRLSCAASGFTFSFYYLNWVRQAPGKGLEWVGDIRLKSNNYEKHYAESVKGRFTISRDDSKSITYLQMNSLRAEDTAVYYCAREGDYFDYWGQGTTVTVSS VL: DIQLTQSPSSLSASVGDRVTITCRASESVDSFGATFMHWYQQKPGKAPKLLIYLASWLPSGVPSRFSGSGSGTDFTLTISSLQPEDFATYYCVQNNEDPYTFGQGTKLEIK",
    "Bmax": 1.07
  }
]

Recorded values, source patent US20250277057A1.
